System: drug resistant LOVO/DX line versus drug sensitive LoVo line
ASSAY_OVERVIEW: Resistance index (RI), LoVo/DX versus LoVo
Type: cell-based, human
CONDITION_INFO: RI = IC50 LoVo/DX / IC50 LoVo; 0<RI<2 able to overcome drug resistance; 2<RI<10 moderate ability; RI>10 no influence
We use 2 as the dividing line for Resistance index (RI): on or above the line is Condition met, below is Condition not met.

- CC(C)=CCCC(C)CC(=O)OC[C@H](COP(=O)([O-])OCC[N+](C)(C)C)OC(=O)CC(C)CCC=C(C)C (some centres unmarked): Condition not met
- CCCCCCCCCCCCCCCC(=O)O[C@H](COC(=O)CC(C)CCC=C(C)C)COP(=O)([O-])OCC[N+](C)(C)C (some centres unmarked) [Compound 10b]: Condition not met
- COc1cccc2c1C(=O)c1c(O)c3c(c(O)c1C2=O)C[C@@](O)(C(=O)CO)C[C@@H]3O[C@H]1C[C@H](N)[C@H](O)[C@H](C)O1 [Doxorubicin, reference compound]: Condition met

In: Resistance index (RI) >= 2 for CCCCCCCCCCCCCCCC(=O)OC[C@H](COP(=O)([O-])OCC[N+](C)(C)C)OC(=O)CC(C)CCC=C(C)C (some centres unmarked) ?
Out: Condition not met

In: Resistance index (RI) >= 2 for CCCCCCCCCCCCCCCC(=O)O[C@H](COC(=O)C=C(C)CCC=C(C)C)COP(=O)([O-])OCC[N+](C)(C)C (mixture of isomers) [Compound 10a] ?
Out: Condition not met

---

System: BALB/3T3 (normal mice fibroblasts)
ASSAY_OVERVIEW: Antiproliferative assay in vitro, SRB test, BALB/3T3
Type: cell-based
CONDITION_INFO: Mus musculus, BALB/3T3, 72 hours exposure, mean ± SD of 3–5 independent experiments, n.a. = no activity in concentration of 5, 25, 125, 625 μM
pIC50: −log10 of the molar value.
We use 4 as the dividing line for pIC50: on or above the line is condition met, below is condition not met.

Solved entries:
• CCCCCCCCCCCCCCCC(=O)OC[C@H](COP(=O)([O-])OCC[N+](C)(C)C)OC(=O)C=C(C)CCC=C(C)C (mixture of isomers) = condition not met
• CC(C)=CCCC(C)=CC(=O)OC[C@H](COP(=O)([O-])OCC[N+](C)(C)C)OC(=O)C=C(C)CCC=C(C)C (mixture of isomers) = condition not met
• CC(C)=CCCC(C)CC(=O)OC[C@H](COP(=O)([O-])OCC[N+](C)(C)C)OC(=O)CC(C)CCC=C(C)C (stereo partly drawn) = condition not met

In: pIC50 >= 4 for CCCCCCCCCCCCCCCC(=O)O[C@H](COC(=O)C=C(C)CCC=C(C)C)COP(=O)([O-])OCC[N+](C)(C)C (mixture of isomers) [Compound 10a] ?
Out: condition met

---

Tested on: BALB/3T3 (normal mice fibroblasts)
ASSAY_OVERVIEW: Antiproliferative assay in vitro, SRB test, BALB/3T3
Type: cell-based
CONDITION_INFO: 72 hours exposure, mean ± SD of 3–5 independent experiments, n.a. = no activity in concentration of 5, 25, 125, 625 μM
READOUT_KIND: pIC50
Give bare numbers, as −log10 of the molar value.

In: // pIC50 lookup, key: N.N.[Cl][Pt][Cl] [Cisplatin, reference compound]
Out: 5.38
